target: Recombinant HCV polymerase (Hepatitis C virus genotype 1b); construct: Recombinant HCV polymerase was tested for its ability to perform primer/template-directed transcription; experiment: biochemical; details: inhibition of polymerase-directed transcription; 30 min at 30° C; 30 nM enzyme; cpm data in triplicate
recorded metric: pIC50
The meaning of pIC50 here: minus log10 of the concentration in molar units.

compound	pIC50
CCc1cc(CCC2(C3CCCC3)CC(O)=C(Cc3nc4nc(C)cc(C)n4n3)C(=O)O2)ccc1CC#N (single isomer, unassigned; enantiomer 2) [A(117)]	8.30

q: Requested read-out pIC50, target or system Recombinant HCV polymerase (Hepatitis C virus genotype 1b), entry CCc1cc(CCC2(C3CCCC3)CC(O)=C(Cc3nc4ncc(C)cn4n3)C(=O)O2)ccc1Cn1cccn1 (stereo not drawn)
a: 8.15

q: Requested read-out pIC50, target or system Recombinant HCV polymerase (Hepatitis C virus genotype 1b), entry CCc1cc(CCC2(C3CCCC3)CC(O)=C(Cc3nc4nc(C)cc(C)n4n3)C(=O)O2)c(OC)cn1 (stereo not drawn) [A(3)]
a: 9.00

###

biological target: Recombinant HCV polymerase (Hepatitis C virus genotype 1b); construct: Recombinant HCV polymerase was tested for its ability to perform primer/template-directed transcription; experiment: biochemical; settings: inhibition of polymerase-directed transcription; 30 min at 30° C; 30 nM enzyme; cpm data in triplicate
Where a name gives a salt, the structure may show the parent alone.
So basically, if IC50 comes in under 7 nM it's t, and if it's 7 nM or more it's f.

Solved entries:
compound	class name
CCc1cc(CCC2(C3CCCC3)CC(O)=C(Cc3nc4nc(C)cc(C)n4n3)C(=O)O2)cc(C)n1 (centres unmarked)	f
CCc1cc(CCC2(C3CCCC3)CC(O)=C(Cc3nc4nc(C)cc(C)n4n3)C(=O)O2)ccc1CNC(=O)OC(C)(C)C (centres unmarked)	t
CCc1cc(CCC2(C3CCCC3)CC(O)=C(Cc3nc4nc(C)cc(C)n4n3)C(=O)O2)ccc1CNS(C)(=O)=O (centres unmarked) [A(128)]	t
Cc1nn(C)c(Cl)c1CC1=C(O)CC(CCc2ccc(C(C)(C)C#N)c(F)c2)(C2CCCC2)OC1=O (centres unmarked)	t
CCOc1cnc(CC)cc1CCC1(C2CCCC2)CC(O)=C(Cc2nc3ncc(C)cn3n2)C(=O)O1 (centres unmarked) [A(43)]	f

Now let's try a different one.
q: Is it true that IC50 reported for CCc1cc(CCC2(C3CCCC3)CC(O)=C(Cc3nc4nc(C)cc(C)n4n3)C(=O)O2)ccc1CN (centres unmarked) [A(125), hydrochloride] is less than 7 nM?
a: f

###

biological target: Recombinant HCV polymerase (Hepatitis C virus genotype 1b, UniProt P26663); construct: Recombinant HCV polymerase was tested for its ability to perform primer/template-directed transcription; experiment: biochemical; conditions: inhibition of polymerase-directed transcription; 30 min at 30° C; 30 nM enzyme; cpm data in triplicate
Sequence (P26663 2420-3010): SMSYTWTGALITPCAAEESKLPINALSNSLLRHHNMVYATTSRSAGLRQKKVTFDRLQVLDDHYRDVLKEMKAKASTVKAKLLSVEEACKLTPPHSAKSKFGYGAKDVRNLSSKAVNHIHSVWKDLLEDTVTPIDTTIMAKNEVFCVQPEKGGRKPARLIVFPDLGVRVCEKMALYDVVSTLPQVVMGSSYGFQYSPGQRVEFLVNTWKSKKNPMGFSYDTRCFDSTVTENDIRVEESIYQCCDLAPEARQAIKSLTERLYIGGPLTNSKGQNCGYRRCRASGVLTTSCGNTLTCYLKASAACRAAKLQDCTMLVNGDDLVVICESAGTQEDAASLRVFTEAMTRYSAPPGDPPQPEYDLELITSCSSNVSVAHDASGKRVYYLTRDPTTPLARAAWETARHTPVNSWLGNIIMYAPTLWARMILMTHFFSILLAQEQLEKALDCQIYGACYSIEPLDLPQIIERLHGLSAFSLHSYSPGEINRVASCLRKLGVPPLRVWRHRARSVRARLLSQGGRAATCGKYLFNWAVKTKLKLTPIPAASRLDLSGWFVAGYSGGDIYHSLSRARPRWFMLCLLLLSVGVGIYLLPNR
Each record here notes measured IC50.
Return type: number; implicit unit nM.

q: What does the record list as IC50 for CCc1cc(CCC2(C3CCCC3)CC(O)=C(Cc3nc4nc(C)cc(C)n4n3)C(=O)O2)c(OC)cn1 (single isomer, unassigned) [A(38)] ?
a: 3

q: What does the record list as IC50 for CCc1cc(CCC2(C3CCCC3)CC(O)=C(Cc3nc4nc(C)cc(C)n4n3)C(=O)O2)ccc1C(=O)OC (centres unmarked) ?
a: 7

q: What does the record list as IC50 for CCCOc1cc(O)c(CC(F)(F)F)cc1CCC1(C2CCCC2)CC(O)=C(Cc2nc3nc(C)cc(C)n3n2)C(=O)O1 (centres unmarked) ?
a: 5

q: What does the record list as IC50 for CS(=O)(=O)c1ccc(CCC2(C3CCCC3)CC(=O)CC(=O)O2)cc1C(F)(F)F (centres unmarked) ?
a: 6400

q: What does the record list as IC50 for Cc1cc(C)n2nc(CC3=C(O)CC(CCc4cc(CC(F)(F)F)nc(CC(F)(F)F)c4)(C4CCCC4)OC3=O)nc2n1 (single isomer, unassigned; enantiomer 1) [A(10)] ?
a: 3
